Molecular target: MAPK14 (UniProt Q16539)
Sequence (Q16539 whole entry, looked up): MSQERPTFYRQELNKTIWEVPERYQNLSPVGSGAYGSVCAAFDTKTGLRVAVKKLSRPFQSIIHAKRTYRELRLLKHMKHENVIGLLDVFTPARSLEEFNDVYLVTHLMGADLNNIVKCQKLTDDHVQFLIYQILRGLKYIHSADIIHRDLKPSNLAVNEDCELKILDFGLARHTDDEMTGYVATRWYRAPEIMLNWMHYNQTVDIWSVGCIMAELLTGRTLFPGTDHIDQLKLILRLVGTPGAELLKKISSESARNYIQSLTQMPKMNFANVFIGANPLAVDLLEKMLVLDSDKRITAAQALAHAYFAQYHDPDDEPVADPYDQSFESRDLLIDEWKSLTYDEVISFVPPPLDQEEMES
pIC50: −log10 of the molar value.
measured property: pIC50

{"columns": ["smiles", "assay target", "measured value"],
 "data": [
  ["OCCC#Cc1nc(-c2ccc(F)cc2)c(-c2ccncc2)n1CCCc1ccccc1", "MAPK14 (UniProt Q16539)", 6.00]
]}

====

Molecular target: MAPK14, Q16539 [p38 beta Inhibition]
Sequence (Q16539 whole entry, looked up, change not shown): as the sequence (Q16539 whole entry, looked up) above

{"columns": ["smiles", "IC50 (µM)"],
 "data": [
  ["OCCC#Cc1nc(-c2ccc(F)cc2)c(-c2ccncc2)n1CCCc1ccccc1", 11]
]}

====

Target: MAPK14 (human) (UniProt Q16539)
Sequence (Q16539 whole entry, looked up): as above
Conditions: pbmc
pIC50: −log10 of the molar value.
measured property: pIC50

{"columns": ["smiles", "measured property", "measured value"],
 "data": [
  ["OCCC#Cc1nc(-c2ccc(F)cc2)c(-c2ccncc2)n1CCCc1ccccc1", "pIC50", 7.96]
]}
